A collection of compounds and their measured CC50 at 48 h
Assay: Cytotoxicity against human HeLa cells assessed as growth inhibition after 2 days by SRB assay
Format: cell-based
OBSERVABLE: CC50 at 48 h

                                        mol    observable   result
0  CCOC(=O)/C=C/[C@H](C[C@@H]1CCNC1=O)NC(=O)[C@@H](CC(=O)[C@@H](NC(=O)c1cc(C)on1)C(C)C)Cc1ccc(F)cc1  CC50 at 48 h  > 50 µM
1  COc1cc(C[C@H]2COC(=O)[C@@H]2Cc2ccc(O)c(OC)c2)ccc1O  CC50 at 48 h  > 50 µM
2  COc1ccc(C[C@H]2COC(=O)[C@@H]2Cc2ccc(Oc3cc(C[C@H]4C(=O)OC[C@@H]4Cc4ccc(OC)c(OC)c4)cc(OC)c3O)c(OC)c2)cc1OC  CC50 at 48 h  > 50 µM
3  COc1cc(C[C@H]2C(=O)OC[C@@H]2Cc2cc(OC)c(O)c(-c3cc(C[C@H]4C(=O)OC[C@@H]4Cc4ccc(OC)c(OC)c4)cc(OC)c3O)c2)ccc1O  CC50 at 48 h  > 50 µM
4  COc1cc(C[C@H]2COC(=O)[C@@H]2Cc2cc(OC)c(O)c(-c3cc(C[C@H]4C(=O)OC[C@@H]4Cc4ccc(OC)c(OC)c4)cc(OC)c3O)c2)ccc1O  CC50 at 48 h  > 50 µM

Data origin, for the record: ChEMBL document CHEMBL4330149
